assay info: Pharmacokinetic evaluation in mice, intravenous and oral administration
Type: in vivo
conditions used: mouse, plasma; male Balb/c nude mice, intravenous injection, 1.0 mg/kg, single; read-out: area under the plasma concentration-time curve (AUC0-last)
measure: AUC(0-t) (µM·h)
Please give a number only; it is taken to be in µM·h.

Query: Need AUC(0-t), item COc1cc2nccc(Oc3ccc(NC(=O)NC4CC4)c(Cl)c3F)c2cc1C(N)=O [Embodiment 1]
Response: 3.21

###

target desc: Aurora-A(h) (Homo sapiens, UniProt O14965)
Sequence (O14965 whole entry): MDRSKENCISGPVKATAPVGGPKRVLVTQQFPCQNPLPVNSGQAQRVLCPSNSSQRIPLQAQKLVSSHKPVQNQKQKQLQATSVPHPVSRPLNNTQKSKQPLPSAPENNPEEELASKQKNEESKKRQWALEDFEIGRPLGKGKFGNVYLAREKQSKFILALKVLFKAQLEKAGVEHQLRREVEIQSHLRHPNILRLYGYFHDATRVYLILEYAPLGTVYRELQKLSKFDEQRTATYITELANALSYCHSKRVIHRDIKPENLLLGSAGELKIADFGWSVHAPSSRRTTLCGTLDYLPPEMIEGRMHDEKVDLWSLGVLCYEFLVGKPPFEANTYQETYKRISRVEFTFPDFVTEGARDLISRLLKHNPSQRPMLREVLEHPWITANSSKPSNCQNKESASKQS
assay info: In vitro kinase activity test, Aurora-A(h)
conditions used: read-out: Aurora-A(h) IC50; Table 2; ATP 10 μM
measure: pIC50
The quantity pIC50 is defined as the negative base-10 logarithm of the molar concentration.

Query: What pIC50 value was documented for this molecule, COc1cc2nccc(Oc3ccc(NC(=S)NC4CC4)c(Cl)c3F)c2cc1C(N)=O [Comparative Compound 2] ?
Response: 6.58
